Each item that follows carries a reported GI50.
- System: HOP-92
- method notes: NCI tumour cell line growth inhibition, 48 h
Activity calls are given as the source filed them. No stated cut-off is given here; in the data, active = GI50 up to about 1.1 µM and inactive = higher.
measured metric: GI50

- COc1cc(C(=O)C/C(CCC(=O)Nc2ccc(Cl)cc2Cl)=N/NC(=O)C(=O)NN)ccc1O: > 100 µM (inactive)
- COC(=O)C(=O)C(C(=O)C(=O)Nc1ccccc1[N+](=O)[O-])c1nc2ccc([N+](=O)[O-])cc2nc1O (stereo unspecified): > 100 µM (inactive)
- COC(=O)C1(C(=O)OC)Cc2ccc(C)cc2C2=C1C(=O)c1ccccc1C2=O: 20 µM (inactive)
- CC1(CNCc2ccccc2)CC(CCc2ccccc2)N(C(=O)c2ccc([N+](=O)[O-])cc2)C1Cc1ccc(O)cc1 (stereo unspecified): 2.04 µM (inactive)
- S=C1c2cc(Cl)ccc2N=C(NC2CCCC2)C2CSCN12 (stereo unspecified): 60.5 µM (inactive)
- CCn1c2ccc(C(=O)CCCN3CCCCC3)cc2c2cc(C(=O)CCCN3CCCCC3)ccc21: 10.4 µM (inactive)
- O=C(NNC(=S)Nc1ccccc1)c1csc(NC(=S)NC2CCCCC2)n1: 94 µM (inactive)
- Cc1nc2cc(F)c(F)cc2[nH]c1=O: > 100 µM (inactive)
- NC1CCCCC1.O=P(O)(O)C(CSc1ccccc1)P(=O)(O)O: > 100 µM (inactive)
- COC12C(COC(=O)NCCO)C3=C(C(=O)C(C)=C(N)C3=O)N1CC1NC12 (stereo unspecified): 30 µM (inactive)
- C[C@]12CCC(=O)C=C1CC[C@@H]1[C@@H]2CC[C@]2(C)C(=O)/C(=C/c3ccc([N+](=O)[O-])cc3)C[C@@H]12: > 100 µM (inactive)

The origin of these recorded values is ChEMBL document CHEMBL1201862.
